- System: NCI-H522 lung
- protocol notes: NCI tumour cell line growth inhibition, 48 h
This listing pairs compounds with measured GI50.

Recorded GI50, per entry:
{"compound": "CCN(Cc1ccc(F)cc1)c1ccc(CO)c(C)c1", "outcome measure": "GI50", "experimental value": "8.52 µM"}
{"compound": "O=[N+]([O-])c1ccc(Oc2nc(Nc3ccc(O[C@H]4CO[C@H]5[C@@H]4OC[C@@H]5O)c(Cl)c3)ncc2F)c(Cl)c1", "outcome measure": "GI50", "experimental value": "1.17 µM"}

Then this compound:
QUERY: Give its GI50 value. Item: N#Cc1c(Br)n(C2OC(CO)C(O)C2O)c2ncnc(N)c12 (stereo not drawn)
RESULT: 4.62 µM

----------
- Test system: SF-295 CNS
- protocol notes: NCI tumour cell line growth inhibition, 48 h
The following compounds are listed with their measured TGI values.

Observe how each entry below is paired with its result.
{"compound": "O=C1C2=C(c3ccccc31)C(c1ccccc1)N1C(=O)CSC1=N2 (configuration not stated)", "TGI": "> 100 µM"}
{"compound": "CCCCCc1cc2cc3c(c(O)c2c(=O)[nH]1)C1(CCC3)C(O)=c2c(=O)c3c(=O)cc(OC)c(=O)c=3c(=O)c2=C1O (configuration not stated)", "TGI": "11 µM"}
{"compound": "Oc1ccc(-c2nc3ccc4[nH]ncc4c3c3c2CCCC3)c(F)c1", "TGI": "14.3 µM"}
{"compound": "N#Cc1c(Br)n(C2OC(CO)C(O)C2O)c2ncnc(N)c12 (configuration not stated)", "TGI": "30.7 µM"}
{"compound": "Cc1c(-c2ccccc2)nn2cc(-c3ccccc3)nnc12", "TGI": "> 100 µM"}
{"compound": "COc1ccc(/C=c2\\sc3n(c2=O)C2C(NN=3)N(C)C(=O)N2C)cc1 (configuration not stated)", "TGI": "> 24.5 µM"}
{"compound": "CN(COC(=O)c1ccccc1)c1nc(N(C)COC(=O)c2ccccc2)nc(N(C)COC(=O)c2ccccc2)n1", "TGI": "> 84.9 µM"}
{"compound": "CN(C)C(=Nc1nc(=[N+](C)C)ss1)N(C)C", "TGI": "> 100 µM"}
{"compound": "Oc1ccc(O)c(-c2cc(-c3ccc(Cl)cc3)nn2-c2ccccc2)c1", "TGI": "39.2 µM"}
{"compound": "COC(OC)C1OCC(n2cc(F)c(=O)[nH]c2=O)C1O (configuration not stated)", "TGI": "> 100 µM"}

QUERY: Query for SF-295 CNS: what TGI does the record show for COC(=O)[C@H]1NC(=O)CCSSC1(C)C ?
RESULT: > 100 µM

QUERY: Can you look up TGI on SF-295 CNS for c1ccc(CN[C@]23C4C5CC6C7C5C2C7[C@@](NCc2ccccc2)(C64)N3Cc2ccccc2)cc1 (some centres not stated) ?
RESULT: > 100 µM

QUERY: Request body: readout TGI, system SF-295 CNS, query CC(=O)OC1C(C)OC(OC(=O)C2CCC3C(C2)OC2(CC(OC(=O)/C=C/c4ccccc4)C(C)CO2)C32CO2)C(OC2OC(C)C(O)C(OC(C)=O)C2O)C1O (configuration not stated) . Return the value.
RESULT: < 0.0304 µM

QUERY: Record COc1cccc(/C=N/NC(=S)NC2CC3CCC2C3)c1O (configuration not stated) : what is its TGI with SF-295 CNS?
RESULT: 18 µM

QUERY: Form field: TGI recorded for O=C(CN1CCN(c2cc3c(cc2F)c(=O)c(C(=O)O)cn3C2CC2)CC1)Nc1nc(-c2ccc(Cl)cc2)cs1 with SF-295 CNS (enter value)
RESULT: 29.6 µM
